Origin of the recorded values: ChEMBL document CHEMBL1148762

tested on: DU-145; experiment: Cytotoxicity against human DU145 cells; format: functional
assay metric: TGI (nM)
Give bare numbers, in nM.

Consider the reported TGI for these compounds:
molecule: C/C=C1\NC(=O)[C@H](Cc2ccccc2)NC(=O)[C@@H](C(C)C)NC(=O)[C@@H]([C@@H](C)CC)NC(=O)[C@H](NC(=O)[C@H](NC(=O)[C@H](CCCNCc2ccc(F)cc2)NC(=O)[C@H]2CCCN2C(=O)[C@H](NC(=O)[C@@H](NC(=O)[C@@H](NC(=O)[C@H](NC(=O)CCCC(C)C)C(C)C)[C@@H](C)O)C(C)C)C(C)C)[C@@H](C)CC)[C@@H](C)OC(=O)[C@H](C(C)C)NC1=O
assay metric: TGI
measured: 230
--
molecule: CC(=O)O[C@H]1C(=O)[C@@]2(C)[C@H]([C@H](OC(=O)c3ccccc3)[C@]3(O)C[C@H](OC(=O)[C@H](O)[C@@H](NC(=O)c4ccccc4)c4ccccc4)C(C)=C1C3(C)C)[C@]1(OC(C)=O)CO[C@@H]1C[C@@H]2O
assay metric: TGI
measured: 794
--
molecule: C/C=C1\NC(=O)[C@H](Cc2ccccc2)NC(=O)[C@@H](C(C)C)NC(=O)[C@@H]([C@@H](C)CC)NC(=O)[C@H](NC(=O)[C@H](NC(=O)[C@H](CCCNC(=O)c2cc3ccc(N(CC)CC)cc3oc2=O)NC(=O)[C@H]2CCCN2C(=O)[C@H](NC(=O)[C@@H](NC(=O)[C@@H](NC(=O)[C@H](NC(=O)CCCC(C)C)C(C)C)[C@@H](C)O)C(C)C)C(C)C)[C@@H](C)CC)[C@@H](C)OC(=O)[C@H](C(C)C)NC1=O
assay metric: TGI
measured: 1830
--
molecule: C/C=C1\NC(=O)[C@H](Cc2ccccc2)NC(=O)[C@@H](C(C)C)NC(=O)[C@@H]([C@@H](C)CC)NC(=O)[C@H](NC(=O)[C@H](NC(=O)[C@H](CCCNCc2ccncc2)NC(=O)[C@H]2CCCN2C(=O)[C@H](NC(=O)[C@@H](NC(=O)[C@@H](NC(=O)[C@H](NC(=O)CCCC(C)C)C(C)C)[C@@H](C)O)C(C)C)C(C)C)[C@@H](C)CC)[C@@H](C)OC(=O)[C@H](C(C)C)NC1=O
assay metric: TGI
measured: 266

# input for lookup
Lookup: TGI / DU-145 / C/C=C1\NC(=O)[C@H](Cc2ccccc2)NC(=O)[C@@H](C(C)C)NC(=O)[C@@H]([C@@H](C)CC)NC(=O)[C@H](NC(=O)[C@H](NC(=O)[C@H](CCCNCc2cccs2)NC(=O)[C@H]2CCCN2C(=O)[C@H](NC(=O)[C@@H](NC(=O)[C@@H](NC(=O)[C@H](NC(=O)CCCC(C)C)C(C)C)[C@@H](C)O)C(C)C)C(C)C)[C@@H](C)CC)[C@@H](C)OC(=O)[C@H](C(C)C)NC1=O
292
